B1: TMEM192 (parent)
chain: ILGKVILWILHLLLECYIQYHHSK

# Variants of: B1
# EXPERIMENT: protein stability index of a GFP-peptide fusion (GPS, HEK-293T) (PSI 1-6); higher = more stable;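 also: lentivirally expressed fusions sorted by FACS into six bins by GFP to DsRed ratio, PSI derived from sequencing read proportions per bin multiplied by bin number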
# RECORDED CONDITIONS: c terminus: a fixed tail appended
A collection of variants and their measured protein stability index
When you answer, write just the number.

L12A: 3
Q19N: 2.91
K24P: 3

Switching to the query record.
Input I6H . Output protein stability index: 3.07
